Target: UniProt:P06737
pIC50: −log10 of the molar value.
measurement_type: pIC50

# compound, recorded_number
rows = [
    ("Oc1cc(O)c2c(c1)O[C@H](c1cc(O)c(O)c(O)c1)[C@H](O)C2 [EGC]", 3.71),
]

---

Molecular target: human liver glycogen phosphorylase a (hlGPa) (Homo sapiens, UniProt P06737)
Sequence (P06737 2-847): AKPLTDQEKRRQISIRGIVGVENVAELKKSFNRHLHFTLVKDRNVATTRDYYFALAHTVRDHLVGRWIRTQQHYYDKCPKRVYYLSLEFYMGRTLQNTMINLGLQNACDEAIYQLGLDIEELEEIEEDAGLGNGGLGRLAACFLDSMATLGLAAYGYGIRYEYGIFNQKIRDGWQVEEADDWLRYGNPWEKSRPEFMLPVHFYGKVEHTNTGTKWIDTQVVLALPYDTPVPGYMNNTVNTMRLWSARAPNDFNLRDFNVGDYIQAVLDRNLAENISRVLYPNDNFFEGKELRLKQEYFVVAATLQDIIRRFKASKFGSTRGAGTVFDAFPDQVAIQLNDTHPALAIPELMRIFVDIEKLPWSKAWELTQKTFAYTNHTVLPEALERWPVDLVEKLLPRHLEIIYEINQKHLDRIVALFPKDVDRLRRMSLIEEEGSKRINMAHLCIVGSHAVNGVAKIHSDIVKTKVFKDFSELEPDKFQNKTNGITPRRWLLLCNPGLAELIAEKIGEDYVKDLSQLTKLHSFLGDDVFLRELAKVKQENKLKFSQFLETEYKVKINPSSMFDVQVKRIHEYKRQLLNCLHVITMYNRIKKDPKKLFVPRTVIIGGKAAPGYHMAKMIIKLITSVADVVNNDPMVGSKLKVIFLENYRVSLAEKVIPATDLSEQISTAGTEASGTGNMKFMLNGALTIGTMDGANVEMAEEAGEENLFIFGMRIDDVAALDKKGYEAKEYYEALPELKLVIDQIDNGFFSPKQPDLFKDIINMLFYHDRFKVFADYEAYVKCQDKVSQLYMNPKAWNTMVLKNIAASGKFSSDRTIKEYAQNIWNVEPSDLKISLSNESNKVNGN

# molecule, Ki [µM]
rows = [
    ("O=C(O[C@@H]1Cc2c(O)cc(O)cc2O[C@@H]1c1cc(O)c(O)c(O)c1)c1cc(O)c(O)c(O)c1 [EGCG]", 17.6),
]

---

Target: Rabbit skeletal muscle glycogen phosphorylase b (rmGPb) (Oryctolagus cuniculus, UniProt P00489)
Construct: gene PYGM
Sequence (P00489 2-843): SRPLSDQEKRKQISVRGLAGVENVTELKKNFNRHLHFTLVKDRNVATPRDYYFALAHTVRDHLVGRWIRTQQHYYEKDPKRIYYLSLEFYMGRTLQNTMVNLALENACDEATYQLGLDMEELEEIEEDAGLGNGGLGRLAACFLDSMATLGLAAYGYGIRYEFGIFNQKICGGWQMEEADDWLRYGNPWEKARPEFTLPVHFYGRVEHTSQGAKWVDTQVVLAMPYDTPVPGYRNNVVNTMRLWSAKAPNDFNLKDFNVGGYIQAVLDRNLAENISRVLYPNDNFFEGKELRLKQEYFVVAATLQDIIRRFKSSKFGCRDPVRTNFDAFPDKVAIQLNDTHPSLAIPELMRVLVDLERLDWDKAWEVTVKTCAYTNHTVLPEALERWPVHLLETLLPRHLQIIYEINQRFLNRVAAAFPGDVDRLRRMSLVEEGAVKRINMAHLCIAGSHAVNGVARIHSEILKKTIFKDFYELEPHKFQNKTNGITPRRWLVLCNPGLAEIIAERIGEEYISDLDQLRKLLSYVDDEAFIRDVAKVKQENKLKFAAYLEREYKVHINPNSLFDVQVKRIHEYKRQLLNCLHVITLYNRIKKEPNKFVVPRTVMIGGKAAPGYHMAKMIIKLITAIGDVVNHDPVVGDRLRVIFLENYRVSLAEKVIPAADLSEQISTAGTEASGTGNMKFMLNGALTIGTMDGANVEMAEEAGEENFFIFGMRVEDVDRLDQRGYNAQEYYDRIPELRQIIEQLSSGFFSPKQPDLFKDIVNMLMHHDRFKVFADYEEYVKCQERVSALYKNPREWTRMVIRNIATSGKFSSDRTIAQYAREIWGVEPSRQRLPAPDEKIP
Test: X-ray crystal structure ([…] Å) plus enzyme kinetics (noncompetitive Ki)
Format: biochemical
measurement_type: Ki (µM)

# smiles_input, recorded_number
data = [
    ("Oc1cc(O)c2c(c1)O[C@H](c1cc(O)c(O)c(O)c1)[C@H](O)C2", 286),
]
